The measurements presented in this section are drawn from PubChem BioAssay AID623962.

# Test system: Huh-7.5 HCV Rluc replicon, luciferase luminescence, 72 h
# Assay text: inhibition of HCV replicon replication, late-stage follow-up, orthogonal assay for HCV NS3 helicase inhibitor project, cell-based, luminescence, Renilla luciferase replicon (AID 623962)
# Conditions: at 10 µM
Active and inactive are the calls of the source.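 The calls were made as follows: active = mean inhibition at 10 µM of 50% or more; inactive = mean inhibition at 10 µM below 50%.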
Hi there, use one of these labels in your reply, thanks! Yes (active), No (inactive)

Query string: Field: outcome | Entry: `Cc1ccc2nc(-c3ccc4nc(-c5ccc(NC(=O)c6ccc(Br)cc6)cc5)sc4c3)sc2c1S(=O)(=O)O`
Result string: No

Query string: For `Cc1ccc2nc(-c3ccc4nc(-c5ccc(NC(=O)c6ccc7ncoc7c6)cc5)sc4c3)sc2c1S(=O)(=O)O` then?
Result string: No

Query string: Same for `Cc1ccc2nc(-c3ccc(NC(=O)c4ccc(NC(=O)c5ccccc5)cc4)cc3)sc2c1S(=O)(=O)O`
Result string: No

Query string: Moving on to `Cc1ccc2nc(-c3ccc(NC(=O)c4ccc(N)cc4)cc3)sc2c1S(=O)(=O)O`
Result string: No

Query string: Check `Cc1ccc2nc(-c3ccc4nc(-c5ccc(NC(=O)c6cccc(C(F)(F)F)c6F)cc5)sc4c3)sc2c1S(=O)(=O)O` too.
Result string: No

Query string: Cool, now `Cc1ccc2nc(-c3ccc4nc(-c5ccc(NC(=S)Nc6ccccc6)cc5)sc4c3)sc2c1S(=O)(=O)O`
Result string: No

Query string: Next up: `Cc1ccc2nc(-c3ccc4nc(-c5ccc(NC(=O)c6ccncc6)cc5)sc4c3)sc2c1S(=O)(=O)O`
Result string: Yes

Query string: Can you handle `Cc1ccc2nc(-c3ccc4nc(-c5ccc(NC(=O)c6cccc7ccccc67)cc5)sc4c3)sc2c1S(=O)(=O)O` next?
Result string: No
